test_summary: chemical genetic growth profiling, strain panel (AID 1159580);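 further: tested at 20 µM; growth read once vehicle control cultures reached saturation at 30 °C; 1 = growth at the plate median or of vehicle wells; lower values mean less growth of the strain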
details: S. cerevisiae deletion strains, growth OD, locus YMR205C, strain PFK2
The whole screen tested about 5,500 compounds, of which about 2,000 (36%) were called active. Another 18% or so got no clear call; they are omitted. No stated cut-off is given here; in the data, active means normalized growth mostly below about 0.91 (no sharp cut-off); inconclusive means no clear call, values can overlap the other calls; inactive means mostly above about 0.92. The list shows a part of the results.
Returns: one label drawn from active, inactive

Example entries and their recorded answers appear below.
molecule: CC(=O)Oc1ccc(C(c2ccc(OC(C)=O)cc2)c2ccccn2)cc1
answer_label: inactive
--
molecule: CN(C)CCCN1c2ccccc2Sc2ccc(C(F)(F)F)cc21
answer_label: inactive
--
molecule: CC(C)CCCC(C)C1CCC2C3C[C@@H](O)[C@@]4(O)C[C@@H](O)CC[C@]4(C)C3CC[C@]12C (stereo not given in full)
answer_label: inactive
--
molecule: CC(C)CCCC(C)[C@H]1CCC2C3CC=C4C[C@@H](O)CC[C@]4(C)C3CC[C@@]21C (stereo not given in full)
answer_label: inactive
--
molecule: CC(=O)Oc1ccc(/C=C/c2cc(OC(C)=O)cc(OC(C)=O)c2)cc1
answer_label: inactive

Q) Record lookup: outcome of this test for CN(C)CCCN1c2ccccc2Sc2ccc(Cl)cc21 ?
A) active

Q) Record lookup: outcome of this test for C/C1=C/CC(C)(C)/C=C/C/C(C)=C/CC1 ?
A) inactive

Q) Record lookup: outcome of this test for CN(C)CCCN1c2ccccc2Sc2ccccc21 ?
A) inactive

Q) Record lookup: outcome of this test for CC(C)CCCC(C)[C@H]1CCC2C3CC=C4CC(=O)CC[C@]4(C)C3CC[C@@]21C (stereo not given in full) ?
A) inactive

Q) Record lookup: outcome of this test for CC(=O)O[C@H]1CC[C@@]2(C)C(=CC(=O)C3C4CCC(C(C)CCCC(C)C)[C@@]4(C)CCC32)C1 (stereo not given in full) ?
A) inactive

----------
For each entry below, report its normalized growth value.
test_summary: chemical genetic growth profiling, strain panel (AID 1159580)
details: S. cerevisiae deletion strains, growth OD, locus YJL095W, strain BCK1, hits give low values
About 2,000 (36%) of roughly 5,500 compounds were called active. Not shown: some 18% with an inconclusive outcome. The list shows a part of the results.
One number for each entry.

These recorded examples may help you get a feel for the data.
compound: COC(=O)c1sccc1NS(=O)(=O)c1cc(Cl)cc(Cl)c1
normalized growth: 1.07
--
compound: CC(C)CC1NC(=O)CNC1=O (stereo unspecified)
normalized growth: 0.964
--
compound: CC1=CC(=O)c2c(O)cccc2C1=O
normalized growth: 0.133
--
compound: C/C=C\C1=C(C(=O)O)N2C(=O)C(NC(=O)C(N)c3ccc(O)cc3)C2SC1 (stereo unspecified)
normalized growth: 0.997
--
compound: CCCc1c(OCCCCc2nn[nH]n2)ccc(C(C)=O)c1O
normalized growth: 1.02

Next, consider the following compound.
Q) Could you share which normalized growth value was measured for COC(=O)C1=C(Nc2ccccc2NS(=O)(=O)c2ccc(C(F)(F)F)cc2Cl)CSC1 ?
A) 0.985

----------
test_summary: chemical genetic growth profiling, strain panel (AID 1159580)
details: S. cerevisiae deletion strains, growth OD, locus YCR088W, strain abp1, hits give low values
About 2,000 (36%) of roughly 5,500 compounds were called active. Roughly 18% stayed inconclusive and do not appear here. The list shows a part of the results.
reported_metric: normalized growth
Give bare numbers.

compound: CCOC(=O)NNc1nncc2ccccc12
result_number: 1.01
--
compound: CCN(CC)CCOCCOC(=O)C1(c2ccccc2)CCCC1
result_number: 0.981
--
compound: CCCOc1ccc2nc(NC(=O)OC)[nH]c2c1
result_number: 1.02
--
compound: N=C(N)N
result_number: 0.992
--
compound: CC(C)NCC(O)COc1ccc(COCCOC(C)C)cc1 (configuration not stated)
result_number: 0.997
--
compound: CCN(CC)CCOC(=O)C1(C2CCCCC2)CCCCC1
result_number: 0.988
--
compound: COc1cc(C/C=C/c2ccccc2)c(OC)cc1O
result_number: 0.958
--
compound: CC(C)(C)NC[C@H](O)c1ccc(O)c(CO)c1
result_number: 1.02
--
compound: NS(=O)(=O)c1cc2c(cc1Cl)NC(CSCc1ccccc1)=NS2(=O)=O
result_number: 1.01
--
compound: CC(C)(C)NCC(O)c1ccc(O)c(CO)c1 (configuration not stated)
result_number: 1.01

Would you be so kind as to report normalized growth for each listed record?
1. CN(C)[C@@H]1C(=O)C(C(N)=O)=C(O)[C@@]2(O)C(=O)C3=C(O)c4c(O)ccc(Cl)c4[C@@](C)(O)[C@H]3C[C@@H]12
2. CN(C)[C@@H]1C(=O)C(C(=O)NCN2CCCC2)=C(O)[C@@]2(O)C(=O)C3=C(O)c4c(O)cccc4[C@@](C)(O)[C@H]3C[C@@H]12

A)
0.988
1.01

----------
test_summary: chemical genetic growth profiling, strain panel (AID 1159580);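 further: tested at 20 µM; growth read once vehicle control cultures reached saturation at 30 °C; 1 = growth at the plate median or of vehicle wells; lower values mean less growth of the strain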
details: S. cerevisiae deletion strains, growth OD, locus YMR078C, strain ctf18, hits give low values
The whole screen tested about 5,500 compounds, of which about 2,000 (36%) were called active. Roughly 18% stayed inconclusive and do not appear here. The list shows a part of the results.
reported_metric: normalized growth

These recorded examples may help you get a feel for the data.
chemical_string: CC(C)=CCc1c2c(c3occ(-c4ccc(O)c(O)c4)c(=O)c3c1O)C=CC(C)(C)O2
result: 0.929 (inactive)
--
chemical_string: CC(C)=CCc1c2c(c3occ(-c4ccc(O)cc4)c(=O)c3c1O)C=CC(C)(C)O2
result: 1.03 (inactive)

Next, consider the following compound.
Q) Could you share which normalized growth value was measured for CCCc1c(OCCCCc2nn[nH]n2)ccc(C(C)=O)c1O ?
A) 0.994 (inactive)

----------
For each entry below, report its normalized growth value.
test_summary: chemical genetic growth profiling, strain panel (AID 1159580);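 further: tested at 20 µM; growth read once vehicle control cultures reached saturation at 30 °C; 1 = growth at the plate median or of vehicle wells; lower values mean less growth of the strain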
details: S. cerevisiae deletion strains, growth OD, locus YKR026C, strain gcn3, hits give low values
Hit rate of the full screen: of about 5,500 compounds, about 2,000 (36%) were called active. Inconclusive results (about 18%) are left out. Some of the results follow.
One number for each entry.

These recorded examples may help you get a feel for the data.
compound: CO[C@H]1CC(O[C@@H]2/C(C)=C/C[C@@H]3C[C@@H](C[C@]4(CC[C@H](C)[C@@H](C5CCCCC5)O4)O3)OC(=O)[C@@H]3C=C(C)/C(=N\O)[C@H]4OC/C(=C\C=C\[C@@H]2C)[C@]43O)O[C@@H](C)C1O (stereo partly drawn)
normalized growth: 1.02

compound: COc1ccccc1OCC(O)CO (stereo not drawn)
normalized growth: 1.02

compound: CCC(C)[C@H]1O[C@]2(C=C[C@@H]1C)C[C@@H]1C[C@@H](C/C=C(\C)[C@@H](OC3C[C@H](OC)C(O[C@H]4C[C@H](OC)[C@@H](O)[C@H](C)O4)[C@H](C)O3)[C@@H](C)/C=C/C=C3\CO[C@@H]4[C@H](O)C(C)=C[C@@H](C(=O)O1)[C@]34O)O2 (stereo partly drawn)
normalized growth: 0.996

compound: O=C1NC(O)=NC1(c1ccccc1)c1ccccc1
normalized growth: 1.02

compound: CC(C)=CC1C(C(=O)O)C1(C)C (stereo not drawn)
normalized growth: 0.977

Would you be so kind as to report normalized growth for each listed record?
1. C[n+]1ccccc1/C=N/O
2. CCOC(=O)NNc1nncc2ccccc12
3. NC1=NCCN1CC(=O)O

A)
[1.01, 1.02, 1.03]

----------
For each entry below, report its normalized growth value.
test_summary: chemical genetic growth profiling, strain panel (AID 1159580);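 further: tested at 20 µM; growth read once vehicle control cultures reached saturation at 30 °C; 1 = growth at the plate median or of vehicle wells; lower values mean less growth of the strain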
details: S. cerevisiae deletion strains, growth OD, locus YDR150W, strain NUM1, hits give low values
The whole screen tested about 5,500 compounds, of which about 2,000 (36%) were called active. Not shown: some 18% with an inconclusive outcome. This is one part of the list.

These recorded examples may help you get a feel for the data.
compound: Oc1cccc(O)c1
result: 1.01 (inactive)

compound: OC[C@H]1O[C@@H](O[C@@H]2[C@@H](CO)O[C@](O)(CO)[C@H]2O)[C@H](O)[C@@H](O)[C@H]1O
result: 0.995 (inactive)

compound: C[N+]1(C)CCOC(O)(c2ccc(-c3ccc(C4(O)C[N+](C)(C)CCO4)cc3)cc2)C1 (stereo unspecified)
result: 0.99 (inactive)

Would you be so kind as to report normalized growth for each listed record?
1. CCCSc1ccc2nc(NC(=O)OC)[nH]c2c1
2. C[n+]1ccccc1/C=N/O
3. NCC(N)C(=O)c1ccccc1 (stereo unspecified)
4. NCC(O)(CS(=O)(=O)O)c1ccc(Cl)cc1 (stereo unspecified)
5. O=[N+]([O-])c1ccc(N2CCOCC2)cc1
6. Cc1cc(=O)n(-c2ccc([N+](=O)[O-])cc2)[nH]1

A)
["0.977 (inactive)", "1.01 (inactive)", "1.01 (inactive)", "1.02 (inactive)", "1.05 (inactive)", "0.905 (inactive)"]

Would you be so kind as to report normalized growth for each listed record?
1. N#CCCC1(CCC#N)c2ccccc2-c2ccccc21
2. COc1ccc2cc(CCC(C)=O)ccc2c1

A)
1: 1.01 (inactive); 2: 0.939 (inactive)
